Reference source for all entries: patent US20200048328A1

biological target: T1, human PCSK9 (human, UniProt Q8NBP7 31-692); experiment: PCSK9:EGFA FRET 1, competition
T1 construct: also called hPCSK9; huPCSK9
QUANTITY_NAME: IC50 (nM)
Your answer is read as nM, so omit the unit and give the number.

Specify measured IC50 for PCSK9-PKE2 tandem 4472_A06 (designed binder, not shown: small tags and cut ends, The two parts are one polypeptide in the real molecule, joined by the undisclosed linker M; they are given here as separate chains.) PCSK9 10Fn3: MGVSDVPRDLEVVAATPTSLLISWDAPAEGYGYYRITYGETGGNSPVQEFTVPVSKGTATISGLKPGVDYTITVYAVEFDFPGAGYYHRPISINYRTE PKE2 10Fn3: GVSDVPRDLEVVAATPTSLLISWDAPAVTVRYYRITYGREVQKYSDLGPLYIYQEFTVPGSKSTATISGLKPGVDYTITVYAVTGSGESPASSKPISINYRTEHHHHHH .
9.06

Specify measured IC50 for PCSK9-PKE2 tandem 4472_D08 (designed binder, not shown: small tags and cut ends, The two parts are one polypeptide in the real molecule, joined by the undisclosed linker N; they are given here as separate chains.) PCSK9 10Fn3: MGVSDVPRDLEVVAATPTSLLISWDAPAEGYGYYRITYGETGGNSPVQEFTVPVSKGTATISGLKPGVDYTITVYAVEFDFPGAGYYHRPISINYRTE PKE2 10Fn3: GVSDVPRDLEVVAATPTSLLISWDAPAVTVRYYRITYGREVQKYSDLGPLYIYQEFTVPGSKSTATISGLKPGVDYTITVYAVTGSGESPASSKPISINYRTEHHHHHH .
6.32
